pIC50: −log10 of the molar value.
Observed pIC50 values for Aurora A (Homo sapiens) are listed in what follows.
experimental_readout: pIC50

{"molecule": "COc1ccc(CSc2nnc(-c3ccnc(N)c3)o2)cc1F [Example 209]", "system_name": "Aurora A (Homo sapiens)", "experimental_readout": "pIC50", "result": "< 5.00"}
{"molecule": "COc1ccc(CSc2nnc(-c3ccc4c(c3)OCO4)o2)cc1F [Reference Example 71, reference compound]", "system_name": "Aurora A (Homo sapiens)", "experimental_readout": "pIC50", "result": "< 5.00"}

----------
pIC50: −log10 of the molar value.
Observed pIC50 values for UniProt P53350 are listed in what follows.
Sequence (P53350 whole entry): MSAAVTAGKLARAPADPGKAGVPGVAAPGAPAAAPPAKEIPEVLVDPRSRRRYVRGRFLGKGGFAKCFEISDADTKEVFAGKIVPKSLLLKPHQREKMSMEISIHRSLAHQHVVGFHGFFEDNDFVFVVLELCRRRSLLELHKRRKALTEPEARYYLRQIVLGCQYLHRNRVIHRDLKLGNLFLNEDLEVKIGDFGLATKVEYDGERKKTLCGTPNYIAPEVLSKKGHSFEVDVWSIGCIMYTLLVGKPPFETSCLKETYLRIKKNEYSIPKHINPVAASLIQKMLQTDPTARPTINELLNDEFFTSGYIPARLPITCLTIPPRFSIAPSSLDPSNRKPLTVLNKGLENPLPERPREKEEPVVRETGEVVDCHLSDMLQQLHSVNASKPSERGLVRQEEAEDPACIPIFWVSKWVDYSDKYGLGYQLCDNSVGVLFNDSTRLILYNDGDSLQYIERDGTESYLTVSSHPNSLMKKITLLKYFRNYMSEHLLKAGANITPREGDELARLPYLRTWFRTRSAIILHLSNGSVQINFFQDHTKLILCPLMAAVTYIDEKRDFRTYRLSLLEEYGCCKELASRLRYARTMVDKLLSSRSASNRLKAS
experimental_readout: pIC50

{"compound": "COc1ccc(-c2coc3ccc(-c4nnc(SC)o4)cc23)cc1", "experimental_readout": "pIC50", "result": "< 5.00"}
{"compound": "COc1ccc(CSc2nnc(-c3ccc4c(c3)OCO4)o2)cc1F [Reference Example 71, reference compound]", "experimental_readout": "pIC50", "result": "< 5.00"}

Data provenance: patent US8492378B2
